- experiment-notes: qHTS Assay for Lipid Storage Modulators in Drosophila S3 Cells
- condition-details: BODIPY lipid droplet fluorescence, 18-24 h, cells fed with added oleic acid; series mostly up to 46.1 µM
Out of some 320,000 compounds screened, about 2,100 (0.66%) were called active. Roughly 53% stayed inconclusive and do not appear here. Calls follow the shape of the dose curve; as a rule, active = well fitted inhibition curve with a large enough effect in the signal ratio, with a control signal flat (not every such curve was filed as active); inconclusive = small, poorly fitted or top-dose-only effect, or effect the other way, or a change in a side signal; inactive = flat fitted curve, though single readings scatter; the % refers to the signal ratio. Many of the other results were omitted from the sample, so actives are more common in it than they were.
Outcome codes: yes (1) (active), no (0) (inactive)

> print(dat)
                                    compound  qualitative.label
 1               COc1cc(S(=O)(=O)N(C)C)ccc1F             no (0)
 2  O=C(CSc1ccc2nnc(-c3cccnc3)n2n1)Nc1ccccc1            yes (1)
 3  O=C(COc1cc2oc(=O)c3c(c2cc1Cl)CCCC3)N1C[C@H]2C[C@@H](C1)c1cccc(=O)n1C2            yes (1)
 4       Cc1cc(F)c(F)c(C(=O)N2CCC(C)CC2)c1Cl             no (0)
 5           COC(=O)c1cccc(NC(=O)C(C)(C)C)c1             no (0)
 6  CC(Oc1cc2oc(=O)c3c(c2cc1Cl)CCC3)C(=O)N1C[C@H]2C[C@@H](C1)c1cccc(=O)n1C2 (some centres not stated)             no (0)
 7  O=C(NC1(C(=O)NC2CCCCC2)CCCCC1)c1ccc2c(c1)OCO2             no (0)
 8  COc1ccc(N2CCN(C(=O)C3CCN(S(=O)(=O)c4ccc5c(c4)oc(=O)n5C)CC3)CC2)cc1             no (0)
 9    CCOc1ccc(/C=C/c2nc(C#N)c(NCCCOC)o2)cc1            yes (1)
10  CCc1cccc(NC(=S)N(CCN(C)C)C(C)c2ccncc2)c1 (configuration not stated)             no (0)
11  COc1ccc(S(=O)(=O)NNC(=O)C2COc3ccccc3O2)cc1[N+](=O)[O-] (configuration not stated)             no (0)
12  Cc1nn(C)c(C)c1S(=O)(=O)N(CC(=O)NCCN1CCOCC1)c1ccc(C(C)C)cc1             no (0)
13  CCCS(=O)(=O)Nc1cccc(-c2ccc3nnc(C)n3n2)c1             no (0)
14  O=C(Nc1c(Cl)ccc2nsnc12)c1ccc([N+](=O)[O-])o1             no (0)
15  COc1cc(NC(=O)c2cccc([N+](=O)[O-])c2)ccc1NC(=O)c1ccco1             no (0)
16  Cc1ccc2nsnc2c1NC(=O)c1ccc([N+](=O)[O-])o1            yes (1)
17            Cc1cc(F)c(F)c(C(=O)NC2CC2)c1Cl            yes (1)
18  CS(=O)(=O)N1CCC(C(=O)N2CCN(c3ccccc3F)CC2)CC1             no (0)
19  Cc1cc(F)c(F)c(C(=O)N2C(C)CCCC2C)c1Cl (configuration not stated)             no (0)
20  Cc1ccc2nsnc2c1NC(=O)c1cccc([N+](=O)[O-])c1             no (0)
21  CC(=O)c1ccc(NC(=O)CSc2ccc3nnc(-c4cccnc4)n3n2)cc1             no (0)
22       CCC(=O)Nc1ccc(NC(=O)c2ccco2)c(OC)c1             no (0)

src = PubChem BioAssay AID2685
